Molecular target: B*07:02 (human), P01889
Assay: ProImmune REVEAL MHC class I-peptide binding assay

binder | REVEAL score at 0 h
LSRNSTHEM (modifications not checked) | 124
LMYFHRRDL (modifications not checked) | 120
SRNSTHEMY (modifications not checked) | 52
FKPGTSGSP (modifications not checked) | 50.4
PERVILAGP (modifications not checked) | 56.1
PLSRNSTHE (modifications not checked) | 65
IPERSWNSG (modifications not checked) | 45.2
LMRRGDLPV (modifications not checked) | 179
